MEASUREMENT_PROTOCOL: logP determination by HPLC (EEC Directive 79/831 Annex V. A8)
Assay type: physicochemical
STATED_CONDITIONS: gradient method, acetonitrile/0.1% aqueous phosphoric acid
A collection of compounds and their measured chromatographic logP
Answer field: number only, no words.

Worked examples, 2 compounds total:
- COMPOUND: "CCC(C)c1c(Cl)nc2c(C#N)cnn2c1NC(C)C(C)C (stereo not drawn)"
  chromatographic logP: 4.59
- COMPOUND: "CCC(C)c1c(Cl)nc2c(C#N)cnn2c1Cl (stereo not drawn)"
  chromatographic logP: 3.27

Challenge: Provide only the value of recorded chromatographic logP for CCC(C)c1c(Cl)nc2c(C=O)cnn2c1NC(C)C(C)C (stereo not drawn)
Response given: 4.17
